Where do the numbers come from? From paper PMC10895678.

Method description: Mouse PK, multiple oral dosing of single compounds
Type: in vivo, KM mice
Experimental context: KM, mouse, plasma; multiple PO 30 mg/kg, times 4, mean of animals; read-out: CLz/F (converted)
Measurement kind: CL/F
Please answer using a numeric value trailed by its unit.

May I ask what CL/F has been recorded for Brc1cc(Br)cc(C2CC(CN3CCCC3)N2Cc2ccccc2Br)c1 (stereo not shown) [BGAz-004] ?
95.4 mL/min/kg

* * *

System: UniProt P10635
Sequence (P10635 whole entry): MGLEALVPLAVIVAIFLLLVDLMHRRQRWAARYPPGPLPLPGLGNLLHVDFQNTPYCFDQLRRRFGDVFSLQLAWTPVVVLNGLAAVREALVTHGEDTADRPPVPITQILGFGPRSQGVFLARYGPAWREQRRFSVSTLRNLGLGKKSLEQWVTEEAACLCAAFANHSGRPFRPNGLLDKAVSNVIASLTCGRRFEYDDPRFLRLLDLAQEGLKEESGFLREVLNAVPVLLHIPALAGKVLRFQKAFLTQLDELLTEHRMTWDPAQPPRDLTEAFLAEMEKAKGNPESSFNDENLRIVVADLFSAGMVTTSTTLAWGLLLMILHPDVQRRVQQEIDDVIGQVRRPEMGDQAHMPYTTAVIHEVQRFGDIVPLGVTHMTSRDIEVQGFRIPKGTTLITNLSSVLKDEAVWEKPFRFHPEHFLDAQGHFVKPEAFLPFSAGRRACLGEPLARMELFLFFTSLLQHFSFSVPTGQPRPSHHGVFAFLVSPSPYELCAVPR
Method description: biochemical
Type: in vitro ADME
Experimental context: human liver microsomes, without pre-incubation; read-out: CYP2D6 IC50
Method: Compounds were solubilized to 10 mM in DMSO. The BGAz compounds were incubated at concentrations of 0.003, 0.009, 0.03, 0.08, 0.25, 0.74, 2.2, 6.7, and 20 μM with CYP1A2, CYP2C9, CYP2C19, and CYP2D6 at 37 °C in the presence of the drug-like probe substrate […] the Phase 1 cofactor NADPH (1 mM). The formation of metabolites of the drug-like probe substrates in the absence and presence of the BGAz compound was monitored by LC-MS/MS, and the IC50 value was determined. […]
Measurement kind: IC50
Please answer using a numeric value trailed by its unit.

CNCC1CC(c2ccc(OC(F)(F)F)cc2)N1Cc1ccccc1OC(F)(F)F (stereo not drawn): 60 nM
Brc1cc(Br)cc(C2CC(CN3CCCC3)N2Cc2ccccc2Br)c1 (stereo not drawn): 1970 nM

Now, please, on to the next molecule.
May I ask what IC50 has been recorded for FC(F)(F)Oc1ccc(C2CC(CN3CCCC3)N2Cc2ccccc2OC(F)(F)F)cc1 (stereo not drawn) ?
190 nM

* * *

Known AUC(0-inf) of a selection of compounds
Method description: Mouse PK, combined (cassette) dosing of BGAz-001–005
Type: in vivo, KM mice
Experimental context: male, KM, mouse, plasma, ip, 1 mg/kg, IP 1 mg/kg, cassette, mean of animals; read-out: AUC(0-∞)

CNCC1CC(c2ccc(OC(F)(F)F)cc2)N1Cc1ccccc1OC(F)(F)F (centres unmarked): 464 ng·h/mL

Now, please, on to the next compound.
May I ask what AUC(0-inf) has been recorded for Brc1cc(Br)cc(C2CC(CN3CCCC3)N2Cc2ccccc2Br)c1 (centres unmarked) ?
581 ng·h/mL

* * *

Known pIC50 of a selection of compounds
System: CYP2C9 (Homo sapiens, UniProt P11712)
Sequence (P11712 whole entry): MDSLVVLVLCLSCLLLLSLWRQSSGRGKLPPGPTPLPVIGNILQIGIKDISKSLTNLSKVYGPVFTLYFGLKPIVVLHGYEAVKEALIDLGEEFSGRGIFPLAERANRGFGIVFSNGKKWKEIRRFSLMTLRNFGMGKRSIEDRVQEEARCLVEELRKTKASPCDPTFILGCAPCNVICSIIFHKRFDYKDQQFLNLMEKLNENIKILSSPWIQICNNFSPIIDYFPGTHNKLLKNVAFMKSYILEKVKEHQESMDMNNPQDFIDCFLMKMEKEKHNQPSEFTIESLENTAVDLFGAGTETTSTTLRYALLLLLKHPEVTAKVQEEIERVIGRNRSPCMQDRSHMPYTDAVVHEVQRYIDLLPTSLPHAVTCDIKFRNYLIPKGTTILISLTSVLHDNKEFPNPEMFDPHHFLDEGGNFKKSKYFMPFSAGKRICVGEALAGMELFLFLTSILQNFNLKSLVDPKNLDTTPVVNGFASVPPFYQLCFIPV
Method description: biochemical
Type: in vitro ADME
Experimental context: human liver microsomes, without pre-incubation; read-out: CYP2C9 IC50
pIC50: −log10 of the molar value.

// known answers, use as guide
FC(F)(F)Oc1ccc(C2CC(CN3CCCC3)N2Cc2ccccc2OC(F)(F)F)cc1 (stereo not drawn): < 4.70
Brc1cc(Br)cc(C2CC(CN3CCCC3)N2Cc2ccccc2Br)c1 (stereo not drawn): < 4.70

Now, please, on to the next compound.
May I ask what pIC50 has been recorded for CNCC1CC(c2ccc(OC(F)(F)F)cc2)N1Cc1ccccc1OC(F)(F)F (stereo not drawn) ?
< 4.70

* * *

Method description: Caco-2 permeability and efflux
Format: in vitro ADME
Experimental context: human, Caco-2, pH 7.4, 10 μM, pH 7.4, 2 h
Measurement kind: efflux ratio at 2 h, 10 μM
Respond numerically, and do not add a unit to the figure.

Brc1cc(Br)cc(C2CC(CN3CCCC3)N2Cc2ccccc2Br)c1 (stereo not drawn) [BGAz-004]: 1.4

May I ask what efflux ratio at 2 h, 10 μM has been recorded for FC(F)(F)Oc1ccc(C2CC(CN3CCCC3)N2Cc2ccccc2OC(F)(F)F)cc1 (stereo not drawn) [BGAz-002] ?
1.2

* * *

System: CYP1A2 (Homo sapiens)
Construct: from tissue; host or cells: human liver microsomes
Sequence (P05177 whole entry): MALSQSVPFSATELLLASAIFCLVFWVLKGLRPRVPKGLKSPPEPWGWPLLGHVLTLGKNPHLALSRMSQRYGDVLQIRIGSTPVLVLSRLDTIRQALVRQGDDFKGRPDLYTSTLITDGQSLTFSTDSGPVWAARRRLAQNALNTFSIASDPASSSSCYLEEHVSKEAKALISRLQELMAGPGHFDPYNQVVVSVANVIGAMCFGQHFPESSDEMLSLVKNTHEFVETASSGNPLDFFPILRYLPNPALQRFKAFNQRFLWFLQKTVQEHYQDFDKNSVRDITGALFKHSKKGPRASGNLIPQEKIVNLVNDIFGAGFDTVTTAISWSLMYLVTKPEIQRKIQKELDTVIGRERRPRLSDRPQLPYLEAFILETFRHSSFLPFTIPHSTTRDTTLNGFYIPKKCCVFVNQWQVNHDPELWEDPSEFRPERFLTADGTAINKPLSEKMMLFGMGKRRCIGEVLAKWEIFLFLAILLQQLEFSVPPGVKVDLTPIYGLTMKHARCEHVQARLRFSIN
Method description: Cytochrome P450 inhibition, CYP1A2
Type: in vitro ADME
Experimental context: human liver microsomes, without pre-incubation; read-out: CYP1A2 IC50
Known IC50 of a selection of compounds

// known answers, use as guide
FC(F)(F)Oc1ccc(C2CC(CN3CCCC3)N2Cc2ccccc2OC(F)(F)F)cc1 (stereo not drawn) [BGAz-002]: > 20 µM
CNCC1CC(c2ccc(OC(F)(F)F)cc2)N1Cc1ccccc1OC(F)(F)F (stereo not drawn) [BGAz-005]: > 20 µM

Now, please, on to the next compound.
May I ask what IC50 has been recorded for Brc1cc(Br)cc(C2CC(CN3CCCC3)N2Cc2ccccc2Br)c1 (stereo not drawn) [BGAz-004] ?
> 20 µM

* * *

Method description: Mouse PK, combined (cassette) dosing of BGAz-001–005
Assay type: in vivo, KM mice
Experimental context: male, KM, mouse, plasma, ip, 1 mg/kg, IP 1 mg/kg, cassette, summary table; read-out: T1/2 (converted)
Measurement kind: half-life (h)
Unit h implied. Number only.

Brc1cc(Br)cc(C2CC(CN3CCCC3)N2Cc2ccccc2Br)c1 (stereo not drawn): 9.82
FC(F)(F)Oc1ccc(C2CC(CN3CCCC3)N2Cc2ccccc2OC(F)(F)F)cc1 (stereo not drawn): 16.1

Now, please, on to the next molecule.
May I ask what half-life has been recorded for CNCC1CC(c2ccc(OC(F)(F)F)cc2)N1Cc1ccccc1OC(F)(F)F (stereo not drawn) ?
9.34
